All values here come from patent US20090028925A1.

Biological target: human thyroid hormone receptors TRβ1 (Homo sapiens, UniProt P10828)
Construct: made in house; host or cells: Sf9 insect cells (baculovirus)
Sequence (P10828 1-461): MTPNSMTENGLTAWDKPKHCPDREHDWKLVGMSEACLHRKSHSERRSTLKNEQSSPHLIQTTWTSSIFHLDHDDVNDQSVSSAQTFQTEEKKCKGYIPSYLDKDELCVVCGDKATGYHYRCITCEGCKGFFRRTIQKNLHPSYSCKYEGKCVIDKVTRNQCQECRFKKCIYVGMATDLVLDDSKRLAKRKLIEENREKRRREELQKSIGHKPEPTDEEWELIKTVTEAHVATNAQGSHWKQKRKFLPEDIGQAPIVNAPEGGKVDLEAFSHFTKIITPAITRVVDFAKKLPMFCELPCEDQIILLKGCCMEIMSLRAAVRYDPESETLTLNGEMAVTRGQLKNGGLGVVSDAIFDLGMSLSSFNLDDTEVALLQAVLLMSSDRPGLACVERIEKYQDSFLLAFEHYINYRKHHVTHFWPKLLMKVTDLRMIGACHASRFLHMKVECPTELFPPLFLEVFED
Sequence (P19793 1-462 partner): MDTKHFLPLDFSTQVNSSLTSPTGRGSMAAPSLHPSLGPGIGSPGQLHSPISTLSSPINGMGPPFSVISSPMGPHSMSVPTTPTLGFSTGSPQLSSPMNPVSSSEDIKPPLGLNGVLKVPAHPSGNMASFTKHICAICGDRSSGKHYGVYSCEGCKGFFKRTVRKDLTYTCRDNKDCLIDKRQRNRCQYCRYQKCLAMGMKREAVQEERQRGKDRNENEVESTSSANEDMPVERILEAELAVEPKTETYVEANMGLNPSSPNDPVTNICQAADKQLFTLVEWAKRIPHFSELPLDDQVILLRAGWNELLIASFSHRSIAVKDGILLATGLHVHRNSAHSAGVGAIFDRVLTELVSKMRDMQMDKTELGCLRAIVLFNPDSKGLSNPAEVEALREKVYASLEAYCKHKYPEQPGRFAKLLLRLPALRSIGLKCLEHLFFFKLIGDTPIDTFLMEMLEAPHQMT
Experiment: Receptor binding to TRβ1 (gel filtration and scintillation proximity assay, labeled T3)
Details: read-out: Ki TRβ
pKi: −log10 of the molar value.
Measured Quantity: pKi

Example cases with answers are listed next.
Molecule | Measured Quantity | Reading
Cc1cc(NC(=O)P(=O)(O)O)cc(C)c1Oc1ccc(O)c(C(C)C)c1 [Compound 1] | pKi | 7.44
Cc1cc(CCP(=O)(O)O)cc(C)c1Cc1ccc(O)c(C(C)C)c1 [Compound 24-1] | pKi | 7.51

I: O=P(O)(O)Cc1cc(I)c(Oc2ccc(O)c(I)c2)c(I)c1 [Compound 6]
II: CC(C)c1cc(Oc2c(I)cc(OCP(=O)(O)O)cc2I)ccc1O [Compound 8]
III: CC(C)c1cc(Oc2c(Br)cc(OCP(=O)(O)O)cc2Br)ccc1O [Compound 8-1]
# input // ascending sort on recorded pKi Your answer should be the labels, listed in the requested order.
# output I, III, II
